molecular target: Human AMPK α2ß2γ1 (Homo sapiens, UniProt O43741+P54646); construct: The full length cDNAs of human AMPK ß2 (NM_005399.3) and human AMPK α2 (NM_006252.3); The full length cDNAs of human AMPK ß2 (NM_005399.3); 6xHis (N); made in house; host or cells: Escherichia coli BL21 CodonPlus (DE3)-RIL; experiment: Test Example 2: evaluation of an activator for AMP-activated protein kinase (AMPK), LabChip mobility shift assay with CaMKK2-phosphorylated enzyme; format: biochemical; details: relative to control (100%), read-out: Emax (maximum rate of increase in activity within the measurement range)
Sequence (P54646 whole entry): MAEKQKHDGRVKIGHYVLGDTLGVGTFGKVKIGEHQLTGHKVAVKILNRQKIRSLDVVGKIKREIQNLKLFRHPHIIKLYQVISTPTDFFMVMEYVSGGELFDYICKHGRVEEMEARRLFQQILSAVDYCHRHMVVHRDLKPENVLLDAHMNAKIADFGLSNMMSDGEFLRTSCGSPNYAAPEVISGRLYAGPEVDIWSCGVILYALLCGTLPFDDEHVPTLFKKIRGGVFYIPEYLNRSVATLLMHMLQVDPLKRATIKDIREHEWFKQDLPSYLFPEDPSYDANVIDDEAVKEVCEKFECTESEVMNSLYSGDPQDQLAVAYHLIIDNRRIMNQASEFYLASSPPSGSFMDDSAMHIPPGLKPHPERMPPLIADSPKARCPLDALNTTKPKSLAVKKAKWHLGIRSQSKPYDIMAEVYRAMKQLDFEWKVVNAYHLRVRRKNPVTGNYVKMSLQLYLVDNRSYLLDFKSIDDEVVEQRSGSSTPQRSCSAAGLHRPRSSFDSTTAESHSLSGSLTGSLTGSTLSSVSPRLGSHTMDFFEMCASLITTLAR
Sequence (O43741 whole entry): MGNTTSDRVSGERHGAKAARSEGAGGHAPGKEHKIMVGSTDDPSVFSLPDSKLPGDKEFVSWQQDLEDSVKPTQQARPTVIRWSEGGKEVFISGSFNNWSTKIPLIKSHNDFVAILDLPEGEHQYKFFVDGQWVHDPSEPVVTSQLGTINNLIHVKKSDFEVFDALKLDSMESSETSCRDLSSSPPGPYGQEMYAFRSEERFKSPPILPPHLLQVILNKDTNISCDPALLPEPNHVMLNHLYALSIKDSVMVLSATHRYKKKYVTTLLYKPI
Sequence (P54619 whole entry partner): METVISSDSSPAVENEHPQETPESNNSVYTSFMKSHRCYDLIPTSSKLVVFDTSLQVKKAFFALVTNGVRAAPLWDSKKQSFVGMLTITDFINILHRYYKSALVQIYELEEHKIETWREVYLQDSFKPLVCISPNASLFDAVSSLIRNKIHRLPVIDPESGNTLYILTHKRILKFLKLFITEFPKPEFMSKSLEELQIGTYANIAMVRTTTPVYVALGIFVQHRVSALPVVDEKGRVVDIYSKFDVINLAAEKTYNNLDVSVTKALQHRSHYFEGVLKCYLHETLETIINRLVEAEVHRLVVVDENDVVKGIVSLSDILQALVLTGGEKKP
Endpoint label: Emax (%)
Write the number in % without appending the unit.

Identify measured Emax corresponding to O[C@@H]1CO[C@H]2[C@@H]1OC[C@H]2Oc1nc2nc(NC3CCc4cc(-c5ccoc5)cc(F)c43)c(Cl)cc2[nH]1 (stereo partly drawn)
650

Identify measured Emax corresponding to Cn1ccc(-c2cc(F)c3c(c2)CC[C@@H]3Nc2nc3nc(O[C@@H]4CO[C@H]5[C@@H]4OC[C@H]5O)[nH]c3cc2Cl)n1
583

Identify measured Emax corresponding to O[C@@H]1CO[C@H]2[C@@H]1OC[C@H]2Oc1nc2nc(N[C@H]3CCc4cc(-c5cncnc5)cc(F)c43)c(Cl)cc2[nH]1
649

----------
For each entry below, report its EC150 (compound concentration showing 150% relative to the control (100%)) value.
target: Human AMPK α2ß2γ1 (Homo sapiens, UniProt O43741+P54646); construct: The full length cDNAs of human AMPK ß2 (NM_005399.3) and human AMPK α2 (NM_006252.3); The full length cDNAs of human AMPK ß2 (NM_005399.3); 6xHis (N); made in house; host or cells: Escherichia coli BL21 CodonPlus (DE3)-RIL; test: Test Example 2: evaluation of an activator for AMP-activated protein kinase (AMPK), LabChip mobility shift assay with CaMKK2-phosphorylated enzyme; assay type: biochemical; settings: FL-Peptide 7 substrate, 25° C., 2 hours
Write the number in nM without appending the unit.

Identify measured EC150 (compound concentration showing 150% relative to the control (100%)) corresponding to Cn1cc(-c2cc(F)c3c(c2)CCC3Nc2nc3nc(O[C@@H]4CO[C@H](CO)C4)[nH]c3cc2Cl)cn1 (single isomer, unassigned)
1.9

Identify measured EC150 (compound concentration showing 150% relative to the control (100%)) corresponding to O[C@@H]1CO[C@H]2[C@@H]1OC[C@H]2Oc1nc2nc(NC3CCc4cc(-c5ccccc5)cnc43)c(Cl)cc2[nH]1 (stereo partly drawn)
54

Identify measured EC150 (compound concentration showing 150% relative to the control (100%)) corresponding to OCCOc1cc(F)c2c(c1)CCC2Nc1nc2nc(O[C@@H]3CO[C@H]4[C@@H]3OC[C@H]4O)[nH]c2cc1Cl (stereo partly drawn)
2.3

Identify measured EC150 (compound concentration showing 150% relative to the control (100%)) corresponding to OCCCOc1cc(F)c2c(c1)CCC2Nc1nc2nc(O[C@@H]3CO[C@H]4[C@@H]3OC[C@H]4O)[nH]c2cc1Cl (stereo partly drawn)
1.6

Identify measured EC150 (compound concentration showing 150% relative to the control (100%)) corresponding to O[C@@H]1CO[C@H]2[C@@H]1OC[C@H]2Oc1nc2nc(NC3CCc4cc(OC5COC5)cc(F)c43)c(Cl)cc2[nH]1 (stereo partly drawn)
4.7

Identify measured EC150 (compound concentration showing 150% relative to the control (100%)) corresponding to O=C1CCCN1CCOc1cc(F)c2c(c1)CCC2Nc1nc2nc(O[C@@H]3CO[C@H]4[C@@H]3OC[C@H]4O)[nH]c2cc1Cl (stereo partly drawn) [Compound I-1-98]
3.6

Identify measured EC150 (compound concentration showing 150% relative to the control (100%)) corresponding to NC(=O)COc1cnc2c(c1)CCC2Nc1nc2nc(O[C@@H]3CO[C@H]4[C@@H]3OC[C@H]4O)[nH]c2cc1Cl (stereo partly drawn)
14

Identify measured EC150 (compound concentration showing 150% relative to the control (100%)) corresponding to COc1ncc(-c2cc(F)c3c(c2)CC[C@@H]3Nc2nc3nc(O[C@@H]4CO[C@H]5[C@@H]4OC[C@H]5O)[nH]c3cc2Cl)cn1
0.81

Identify measured EC150 (compound concentration showing 150% relative to the control (100%)) corresponding to O[C@@H]1CO[C@H]2[C@@H]1OC[C@H]2Oc1nc2nc(NC3CCc4cc(-c5cnccn5)cc(F)c43)c(Cl)cc2[nH]1 (stereo partly drawn)
4.5

Identify measured EC150 (compound concentration showing 150% relative to the control (100%)) corresponding to O=C(COc1cc(F)c2c(c1)CCC2Nc1nc2nc(O[C@@H]3CO[C@H]4[C@@H]3OC[C@H]4O)[nH]c2cc1Cl)NCO (stereo partly drawn)
6.5

Identify measured EC150 (compound concentration showing 150% relative to the control (100%)) corresponding to CC1(COc2cc(F)c3c(c2)CCC3Nc2nc3nc(O[C@@H]4CO[C@H]5[C@@H]4OC[C@H]5O)[nH]c3cc2Cl)COC1 (stereo partly drawn)
1.5

Identify measured EC150 (compound concentration showing 150% relative to the control (100%)) corresponding to COC/C=C/c1cc(F)c2c(c1)CC[C@@H]2Nc1nc2nc(O[C@@H]3CO[C@H]4[C@@H]3OC[C@H]4O)[nH]c2cc1Cl
5.6
